Target: α5β3γ2 GABAA receptors (Ltk cell membranes) (Homo sapiens, UniProt P18507+P31644)
Construct: membranes
Sequence (P31644 32-462): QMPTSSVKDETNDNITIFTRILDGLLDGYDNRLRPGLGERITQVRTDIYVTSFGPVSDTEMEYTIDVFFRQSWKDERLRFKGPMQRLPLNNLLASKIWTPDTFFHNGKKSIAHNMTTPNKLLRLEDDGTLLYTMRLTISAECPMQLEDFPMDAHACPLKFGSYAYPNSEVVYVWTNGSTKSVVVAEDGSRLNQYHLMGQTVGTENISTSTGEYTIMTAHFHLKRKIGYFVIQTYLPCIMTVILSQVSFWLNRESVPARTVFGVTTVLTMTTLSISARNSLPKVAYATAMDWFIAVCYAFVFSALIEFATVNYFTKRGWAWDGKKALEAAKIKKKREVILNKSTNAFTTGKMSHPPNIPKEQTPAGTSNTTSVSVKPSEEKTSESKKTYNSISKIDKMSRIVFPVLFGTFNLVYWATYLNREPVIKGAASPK
Sequence (P28472 26-473 partner): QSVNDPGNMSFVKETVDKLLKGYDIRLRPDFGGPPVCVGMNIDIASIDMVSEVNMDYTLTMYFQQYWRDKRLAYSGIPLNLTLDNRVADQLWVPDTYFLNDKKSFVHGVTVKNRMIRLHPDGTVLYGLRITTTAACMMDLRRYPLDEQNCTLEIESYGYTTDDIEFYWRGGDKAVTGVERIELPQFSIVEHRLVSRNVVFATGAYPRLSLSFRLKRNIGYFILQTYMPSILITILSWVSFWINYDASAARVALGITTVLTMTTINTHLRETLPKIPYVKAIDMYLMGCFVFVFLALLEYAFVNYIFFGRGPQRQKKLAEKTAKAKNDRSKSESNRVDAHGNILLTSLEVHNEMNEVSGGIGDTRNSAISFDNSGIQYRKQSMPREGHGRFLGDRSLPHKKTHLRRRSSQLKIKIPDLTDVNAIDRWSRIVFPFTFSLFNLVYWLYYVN
Sequence (P18507 40-475): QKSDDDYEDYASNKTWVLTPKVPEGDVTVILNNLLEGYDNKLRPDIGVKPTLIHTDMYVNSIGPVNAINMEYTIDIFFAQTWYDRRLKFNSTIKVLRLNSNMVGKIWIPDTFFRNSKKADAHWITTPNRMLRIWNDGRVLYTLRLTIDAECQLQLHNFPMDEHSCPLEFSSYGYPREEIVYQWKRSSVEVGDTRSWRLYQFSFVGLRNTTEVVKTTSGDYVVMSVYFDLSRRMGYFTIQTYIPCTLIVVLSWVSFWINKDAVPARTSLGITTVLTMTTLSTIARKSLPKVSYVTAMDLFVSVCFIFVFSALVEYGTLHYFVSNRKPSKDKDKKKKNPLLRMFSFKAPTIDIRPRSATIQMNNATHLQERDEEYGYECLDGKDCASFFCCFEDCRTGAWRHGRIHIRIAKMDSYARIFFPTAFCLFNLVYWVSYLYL
Experiment: Binding activity of test compounds on GABAAR: inhibition of [3H]Ro15-1788 binding
Settings: GABA α5 Binding Ki Values, inhibition of [3H]Ro15-1788 binding; reported as ranges
Method: Tissue culture and Membrane Preparation: The binding was performed on Ltk cells stably expressing GABAA receptors: α1β1γ2, α2β3γ2, α3β3γ2 and α5β3γ2 (provided by Merck Co., NJ, USA). Cells were seeded in 100 mm culture plates in DMEM/F12 medium containing 10% serum and antibiotics in 5% CO2 and allowed to grow for 1-2 days. […] Protein content was determined using BCA assay (Bio-Rad Labs, Reinach, Switzerland) with Bovine Serum Albumin (Sigma Aldrich, St. Louis, Mo., USA) as the standard. […]
pKi: −log10 of the molar value.
Provide the recorded pKi for the entries that follow.

INSERT INTO measurements (molecule_smiles, endpoint, result) VALUES
  ('Cc1nnn2c1Cc1c(C3=N[C@@H](c4ccccc4F)CO3)ncn1-c1ccc(Cl)cc1-2', 'pKi', '6.00 to 7.00'),
  ('Cc1nnn2c1Cc1c(-c3cccnc3)ncn1-c1ccc(F)cc1-2', 'pKi', '< 6.00');

Please give pKi, item by item, for the list that follows.
1. CCOCc1nnc2n1Cc1c(C3=N[C@@H](c4ccccc4F)CO3)ncn1-c1ccc(Cl)cc1-2
2. COCc1nnc2n1Cc1c(-c3nc(C)no3)ncn1-c1ccc(OC(F)(F)F)cc1-2
3. COCc1nnn2c1Cc1c(C3=N[C@@H](C)CO3)ncn1-c1ccc(Cl)cc1-2
4. Cc1nc(-c2ncn3c2Cc2c(C)nnn2-c2cc(F)ccc2-3)no1
5. Clc1ccc2c(c1)-n1nncc1Cc1c(C#Cc3ccccc3)ncn1-2
6. FC(F)(F)c1ccc(-c2coc(-c3ncn4c3Cc3cnnn3-c3cc(Cl)ccc3-4)n2)cc1

Reply |
1. > 7.00
2. > 7.00
3. 6.00 to 7.00
4. > 7.00
5. > 7.00
6. < 6.00

Measured values drawn from patent US20180170941A1 for this set.
